Biological target: GDP-bound KRAS wild-type protein (Homo sapiens)
Sequence (P01116 whole entry): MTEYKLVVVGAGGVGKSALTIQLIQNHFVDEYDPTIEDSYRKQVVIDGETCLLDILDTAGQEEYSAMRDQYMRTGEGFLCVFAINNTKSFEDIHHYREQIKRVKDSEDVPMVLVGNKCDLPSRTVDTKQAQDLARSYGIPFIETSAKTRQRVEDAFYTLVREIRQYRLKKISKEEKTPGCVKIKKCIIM
Assay: Binding to KRAS by surface plasmon resonance (SPR), Single Cycle Kinetics
Conditions: SPR Single Cycle Kinetics, GDP-bound KRAS wild-type protein, 1:1 binding model; read-out: KRAS KD
Where a SMILES comes first, the peptide text is derived from it. Bridges are numbered along the chain shown (N, C = ends). [ ]: non-standard residue; d: D form. hPhe(3-Cl-4-CF3) = N[C@@H](CCc1ccc(C(F)(F)F)c(Cl)c1)C(=O)O; NPrPhe(4-CF3) = CCCN[C@@H](Cc1ccc(C(F)(F)F)cc1)C(=O)O; NMeGly(cPent) = CN[C@H](C(=O)O)C1CCCC1; Hyp = O=C(O)[C@@H]1C[C@@H](O)CN1; NMeD = CN[C@@H](CC(=O)O)C(=O)O; NMeL = CN[C@@H](CC(C)C)C(=O)O; Ac5c = NC1(C(=O)O)CCCC1; Aze = O=C(O)[C@@H]1CCN1; Sar = CNCC(=O)O
Items are presented alongside their recorded pKd.
Answer as the number alone; pKd is minus log10 of concentration in mol/L.

Please review the following examples before continuing.
compound	pKd
CCC(CC)[C@H]1C(=O)N(C)[C@H](C(=O)N(C)C)CC(=O)N(C)[C@@H](COC)C(=O)N[C@@H]([C@@H](C)CC)C(=O)N(C)CC(=O)N(C)[C@H]2C/C=C\CCN(C2=O)[C@@H](Cc2ccc(C)cc2)C(=O)N(C)CC(=O)N[C@@H](CCc2cc(F)c(C(F)(F)F)c(F)c2)C(=O)N2CC3(CC3)C[C@H]2C(=O)NC2(CC(C)(C)C2)C(=O)N1C [PP2963]	9.41
CC[C@H](C)[C@@H]1NC(=O)[C@H](CC(C)C)N(C)C(=O)C[C@@H](C(=O)N2CCOCC2)N(C)C(=O)[C@H](C2CCCC2)N(C)C(=O)C2(CCCC2)NC(=O)[C@@H]2CCCN2C(=O)[C@H](CCc2ccc(C(F)(F)F)c(Cl)c2)NC(=O)CN(C)C(=O)[C@H](Cc2ccc(Cl)cc2)N2C/C=C\CC[C@@H](C2=O)N(C)C(=O)CN(C)C1=O [PP0608]	8.77
CCO[C@@H]1C[C@H]2C(=O)NC3(CCC3)C(=O)N(C)[C@@H](C3CCCC3)C(=O)N(C)[C@H](C(=O)N3CCOCC3)CC(=O)N(C)[C@@H](CC(C)C)C(=O)N[C@@H](C3CC(F)(F)C3)C(=O)N(C)CC(=O)N(C)[C@H]3CCCCN(C3=O)[C@@H](Cc3ccc(C(F)(F)F)cc3)C(=O)N(C)CC(=O)N[C@@H](CCc3cc(F)c(C(F)(F)F)c(F)c3)C(=O)N2C1 [PP0807]	10.23
CCO[C@@H]1C[C@H]2C(=O)NC3(CCC3)C(=O)N(C)[C@@H](C3CCCC3)C(=O)N(CCc3ccccc3)[C@H](C(=O)N3CCOCC3)CC(=O)N(C)[C@@H](CC(C)C)C(=O)N[C@@H]([C@@H](C)CC)C(=O)N(C)CC(=O)N(C)[C@H]3CCCCN(C3=O)[C@@H](Cc3ccc(C(F)(F)F)cc3)C(=O)N(C)CC(=O)N[C@@H](CCc3cc(F)c(C(F)(F)F)c(F)c3)C(=O)N2C1 [PP0652]	8.60
CCCN1C(=O)CN(C)C(=O)[C@@H]2CCN2C(=O)[C@H]([C@@H](C)CC)NC(=O)[C@H](CC(C)C)N(C)C(=O)C[C@@H](C(=O)N(C)C)N(C)C(=O)[C@H](C2CCCC2)N(C)C(=O)C2(CCCC2)NC(=O)[C@@H]2C[C@@H](OCC)CN2C(=O)[C@H](CCc2ccc(C(F)(F)F)c(Cl)c2)NC(=O)CN(C)C(=O)[C@@H]1Cc1ccc(C(F)(F)F)cc1 [PP0433] ([NMeL]I[Aze][Sar][NPrPhe(4-CF3)][Sar][hPhe(3-Cl-4-CF3)][Hyp](Et)[Ac5c][NMeGly(cPent)][NMeD]-NMe2; lactam N-11)	9.82

query: Return pKd measured with GDP-bound KRAS wild-type protein (Homo sapiens) given this compound: CC[C@H](C)[C@@H]1NC(=O)[C@H](CC(C)C)N(C)C(=O)C[C@@H](C(=O)N(C)C)N(C)C(=O)[C@H](C2CCCC2)N(C)C(=O)C2(CCCC2)NC(=O)[C@@H]2CCCN2C(=O)[C@H](CCc2cc(F)c(C(F)(F)F)c(F)c2)NC(=O)CN(C)C(=O)[C@H](Cc2ccc(C(F)(F)F)cc2)N2CCCCC[C@@H](C2=O)N(C)C(=O)CN(CC)C1=O [PP0514]
result: 7.96
